# Tested on: Tobacco mosaic virus
# assay_details: In vivo antiviral activity against Tobacco mosaic virus (TMV) inoculated left side of Nicotiana tabacum L. leaves assessed as inactivation effect at 100 ug/mL co-incubated with virus measured after 3 to 4 days
# Format: functional
Quick list: Activity per entry.
Kindly write the number and append the unit.

COc1cc2c3c(c4cc(OC)c(OC)cc4c2cc1OC)NC(=O)[C@H]1CCCN1C3 ... 21.2%
COc1cc2c3c(c4cc(OC)c(OC)cc4c2cc1OC)CN1CCC[C@@H]1C3 ... 15.1%

Let us move to another entry and its Activity.
Ask: I would be grateful if you could share the reported Activity for "COc1cc2cc(C(=O)N3CCC[C@H]3C)c3cc(OC)c(OC)cc3c2cc1OC" .
Result: 9.6%
